- Test system: rabbit mesenteric artery
- test_details: Contraction of rabbit mesenteric artery induced by electrical stimulation
- Set-up: species or system New Zealand rabbit
- condition_details: Oryctolagus cuniculus, normal physiological medium
experimental_readout: IC50 (nM)
Value expressed in nM; do not type the unit.

[[record]]
compound = "CN(CC1CCN(CCCOc2ccc(F)cc2)CC1)S(=O)(=O)c1cccc2cnccc12.Cl.Cl [Example 17, dihydrochloride]"
target_system = "rabbit mesenteric artery"
display_unit = "nM"
recorded_number = 100


Now for another entry.
Lab note: measured IC50 of CN(C1CCN(CCCCOc2ccc(F)cc2)CC1)S(=O)(=O)c1cccc2cnccc12 [Example 1] was 400

====

- System: rabbit aortas
- test_details: Contraction of rabbit aortas induced by noradrenaline in a medium without calcium
- Parameters: species or system New Zealand rabbit
- condition_details: Oryctolagus cuniculus, 0.5 h; compound 10^-6 M, rabbit aorta, incubated 30 minutes
Where a name gives a salt, the structure may show the parent alone.
Recorded inhibition at 1 µM determines the label; the label ranges are I: < 30%; II: ≥ 30% and < 70%; III: ≥ 70%

Solved cases (4 shown):
[[record]]
compound = "CN(C1CCN(CCCCOc2ccc(Cl)cc2)CC1)S(=O)(=O)c1cccc2cnccc12 [Example 6, hydrochloride]"
assigned_class = "I"

[[record]]
compound = "CN(C1CCN(CCCCOc2ccc([N+](=O)[O-])cc2)CC1)S(=O)(=O)c1cccc2cnccc12 [Example 2, fumarate]"
assigned_class = "I"

[[record]]
compound = "O=S(=O)(NC1CCN(CCCCOc2ccc(F)cc2)CC1)c1cccc2cnccc12 [Example 13, dihydrochloride]"
assigned_class = "II"

[[record]]
compound = "CN(CC1CCN(CCCNc2ccc(F)cc2)CC1)S(=O)(=O)c1cccc2cnccc12"
assigned_class = "III"


Query: Into which bin does this compound go? CCN(C1CCN(CCCCOc2ccc(F)cc2)CC1)S(=O)(=O)c1cccc2cnccc12 [Example 26, dihydrochloride]
Response: I

Query: Where would CN(C1CCN(CCCCSc2ccc(F)cc2)CC1)S(=O)(=O)c1cccc2cnccc12 [Example 12, dihydrochloride] land among the classes by reported inhibition at 1 µM?
Response: I

Query: // bin(item) where item = CN(CC1CCN(CCCOc2ccc(F)cc2)C1)S(=O)(=O)c1cccc2cnccc12 (stereo not drawn) [Example 22, dihydrochloride]
Response: III

Query: Sort into band: O=S(=O)(NCC1CCN(CCCOc2ccc(F)cc2)CC1)c1cccc2cnccc12
Response: II

Query: Pick a category. Item: CN(CC1CCN(CCCCOc2ccc(F)cc2)C1)S(=O)(=O)c1cccc2cnccc12 (stereo not drawn) [Example 21, dihydrochloride]
Response: III

Query: Please report the category associated with CN(CC1CCN(CCCOc2ccccc2)CC1)S(=O)(=O)c1cccc2cnccc12 , nothing else.
Response: II

Query: Any idea which band CN(CC1CCN(CCCOc2ccc(F)cc2)CC1)S(=O)(=O)c1cccc2cnccc12.Cl.Cl [Example 17, dihydrochloride] is in?
Response: III

Query: Which category does the recorded inhibition at 1 µM put CN(C1CCN(CCCCOc2ccc(F)cc2)CC1)S(=O)(=O)c1cccc2cnccc12 in?
Response: II

====

Quick reference for inhibition at 0.1 µM among some compounds
- System: rabbit aortas
- test_details: Contraction of rabbit aortas induced by noradrenaline in a medium without calcium
- Parameters: species or system New Zealand rabbit
- condition_details: Oryctolagus cuniculus, 0.5 h; compound 10^-7 M, rabbit aorta, incubated 30 minutes
Where a name gives a salt, the structure may show the parent alone.
Entry rule: numbers only, all in %.

Query CN(CC1CCN(CCCNc2ccc(F)cc2)CC1)S(=O)(=O)c1cccc2cnccc12 yields inhibition at 0.1 µM of 22

The reported inhibition at 0.1 µM of the compound CN(CC1CCN(CCCOc2ccc(F)cc2)C1)S(=O)(=O)c1cccc2cnccc12 (stereo not drawn) [Example 22, dihydrochloride] was 43
